reported.property: melting point

| compound | melting point |
| --- | --- |
| C[S+]([O-])c1ccc(-c2nn(CC3CC3)c(=O)cc2-c2ccc(F)cc2)cc1 (centres unmarked) | 133.3 to 133.5 °C |

Notebook: `CSc1ccc(-c2nn(CC3CC3)c(=S)cc2-c2ccc(F)cc2)cc1` , melting point read as 135.7 to 135.8 °C

Per the records, this compound ( `COc1ccc(-c2cc(=O)n(CC3CC3)nc2-c2ccc(OC)c(F)c2)cc1F` ) has melting point equal to 142.3 to 142.7 °C

Entry `CSc1ccc(-c2nn(Cc3ccc(Cl)cc3Cl)c(=O)cc2-c2ccc(Cl)cc2)cc1` , melting point reported as 154.5 to 155 °C

The compound `COc1ccc(-c2nn(CC(C)C)c(=O)cc2-c2ccc(OC)c(F)c2)cc1` showed melting point equal to 124.6 to 125 °C

These measurements were taken from patent US6348468B1.
